Data credit: patent US11986471B2

- target: PRMT5 (Homo sapiens, UniProt O14744)
- Construct: purchased Viva (custom protein)
- Sequence (O14744 whole entry): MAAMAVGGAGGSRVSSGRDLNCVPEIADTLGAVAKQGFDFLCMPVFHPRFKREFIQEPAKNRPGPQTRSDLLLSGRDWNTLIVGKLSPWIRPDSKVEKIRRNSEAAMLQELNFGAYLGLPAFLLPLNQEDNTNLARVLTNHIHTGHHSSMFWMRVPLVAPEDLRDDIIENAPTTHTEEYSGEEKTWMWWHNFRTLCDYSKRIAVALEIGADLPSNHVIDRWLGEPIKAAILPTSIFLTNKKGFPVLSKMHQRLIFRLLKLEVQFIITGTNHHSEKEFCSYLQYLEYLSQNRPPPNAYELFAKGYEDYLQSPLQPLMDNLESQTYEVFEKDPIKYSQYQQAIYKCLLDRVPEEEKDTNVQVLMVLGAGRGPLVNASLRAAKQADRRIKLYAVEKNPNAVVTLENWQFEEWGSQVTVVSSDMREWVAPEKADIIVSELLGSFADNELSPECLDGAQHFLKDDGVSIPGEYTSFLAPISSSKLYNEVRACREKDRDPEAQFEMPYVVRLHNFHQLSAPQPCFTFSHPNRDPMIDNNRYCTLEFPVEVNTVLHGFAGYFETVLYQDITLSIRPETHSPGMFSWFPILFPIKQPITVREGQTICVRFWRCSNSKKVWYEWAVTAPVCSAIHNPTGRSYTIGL
- Sequence (Q9BQA1 whole entry partner): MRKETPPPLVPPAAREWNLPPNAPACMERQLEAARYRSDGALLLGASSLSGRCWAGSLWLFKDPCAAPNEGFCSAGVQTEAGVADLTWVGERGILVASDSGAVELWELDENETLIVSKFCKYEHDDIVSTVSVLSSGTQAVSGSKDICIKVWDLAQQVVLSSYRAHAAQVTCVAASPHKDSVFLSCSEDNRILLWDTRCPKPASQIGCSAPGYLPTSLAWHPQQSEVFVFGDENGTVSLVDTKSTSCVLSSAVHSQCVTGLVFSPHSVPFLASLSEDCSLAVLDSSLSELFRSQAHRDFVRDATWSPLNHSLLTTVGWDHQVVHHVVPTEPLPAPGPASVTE
- assay.details: PRMT5 IC50 assay with no cofactor
- Assay type: biochemical
- condition.notes: read-out: No Co-factor IC50
measurement.name: IC50

Some compounds with recorded IC50:
compound="CC(=O)N1CC(Nc2cc(C(=O)NC[C@H](O)CN3CCc4cc(OCc5cnco5)ccc4C3)nc(N3CCCCC3)n2)C1 [Compound 365]" result="0.5 to 5 µM"
compound="COCCN(C)c1nc(NC2COC2)cc(C(=O)NC[C@H](O)CN2CCc3c(ccc(OCc4cnco4)c3Cl)C2)n1 [Compound 314]" result="0.5 to 5 µM"
compound="Cn1nccc1COc1cc(F)c2c(c1Cl)CCN(C[C@@H](O)CNC(=O)c1ccnc(NC3CCC3)c1)C2 [Compound 282]" result="≥ 5 µM"
compound="CC(C)(C)c1cc(C(=O)NC[C@H](O)CN2CCc3cc(OCc4cnco4)ccc3C2)cc(NC2CCC2)n1 [Compound 308]" result="≥ 5 µM"
compound="Cc1ncoc1COc1ccc2c(c1)CCN(C[C@@H](O)CNC(=O)c1cc(NC3CCCC3)ncn1)C2 [Compound 333]" result="≥ 5 µM"
compound="COc1cc(C(=O)NC[C@H](O)CN2CCc3c(ccc(OCc4cnco4)c3Cl)C2)cc(NC2CCC2)n1 [Compound 302]" result="≥ 5 µM"
compound="Cc1ncoc1COc1ccc2c(c1)CCN(C[C@@H](O)CNC(=O)c1cc(NC3CCC3)nc(NC3CCC3)c1)C2 [Compound 636]" result="0.5 to 5 µM"
compound="CCN1CCN(c2cc(C(=O)NC[C@H](O)CN3CCc4cc(OCc5ocnc5C)ccc4C3)cc(NC3CCC3)n2)CC1 [Compound 410]" result="0.5 to 5 µM"

## Task Tell me reported IC50 for CC(=O)N1CC(Nc2cc(C(=O)NC[C@H](O)CN3CCc4c(ccc(OCc5cnco5)c4Cl)C3)ccn2)C1 [Compound 380] , tested with PRMT5 (Homo sapiens, UniProt O14744).
## Result 0.5 to 5 µM

## Task Tell me reported IC50 for O=C(NC[C@H](O)CN1CCc2cc(OCc3cnco3)ccc2C1)c1cncc(NC2CCC2)c1 [Compound 270] , tested with PRMT5 (Homo sapiens, UniProt O14744).
## Result 0.5 to 5 µM

## Task Tell me reported IC50 for O=C(NC[C@H](O)CN1CCc2c(ccc(OCc3cnco3)c2Cl)C1)c1ccc(OC2CCN(Cc3ccccc3)CC2)cc1 [Compound 330] , tested with PRMT5 (Homo sapiens, UniProt O14744).
## Result 0.5 to 5 µM
